List of inhibition at 50 µM values.
Test system: A549 (human lung cancer cells)
Assay: MTT assay, A549
Type: cell-based
Conditions: 72 h, read-out: Inh % at 50 μM, A549, 72 h
readoutType: inhibition at 50 µM (%)

[
  {
    "molecule": "OC(CNCCc1c[nH]c2ccccc12)Cn1c2ccc(F)cc2c2cc(F)ccc21 (stereo not drawn) [WK-12]",
    "readoutType": "inhibition at 50 µM",
    "recordedValue": 84.7
  },
  {
    "molecule": "CC(C)NCC(O)COC(Cn1c2ccccc2c2cc(F)ccc21)Cn1c2ccccc2c2cc(F)ccc21 (stereo not drawn) [WK-23]",
    "readoutType": "inhibition at 50 µM",
    "recordedValue": 93.6
  },
  {
    "molecule": "CC(C)NCC(O)COC(Cn1c2ccc(F)cc2c2cc(F)ccc21)Cn1c2ccc(F)cc2c2cc(F)ccc21 (stereo not drawn) [WK-22]",
    "readoutType": "inhibition at 50 µM",
    "recordedValue": 95.7
  },
  {
    "molecule": "CC(CO)NCC(O)Cn1c2ccc(F)cc2c2cc(F)ccc21 (stereo not drawn) [WK-19]",
    "readoutType": "inhibition at 50 µM",
    "recordedValue": 79.9
  },
  {
    "molecule": "Oc1ccc(CCNCC(O)Cn2c3ccc(F)cc3c3cc(F)ccc32)cc1 (stereo not drawn) [WK-13]",
    "readoutType": "inhibition at 50 µM",
    "recordedValue": 84.1
  },
  {
    "molecule": "OC(CNCCc1c[nH]c2ccccc12)Cn1c2ccccc2c2cc(F)ccc21 (stereo not drawn) [WK-1]",
    "readoutType": "inhibition at 50 µM",
    "recordedValue": 87.6
  }
]

* * *

Test: PK study in SD rats
Type: in vivo
Details: rat, plasma, po; SD male rats; p.o. (10 mg/kg); mean ± SD (n = 3)
List of half-life values.

[
  {
    "compound": "CC(C)NCC(O)COC(Cn1c2ccccc2c2cc(F)ccc21)Cn1c2ccccc2c2cc(F)ccc21 (stereo not shown)",
    "unitString": "h",
    "half-life": 6.5
  },
  {
    "compound": "CC(C)NCC(O)COC(Cn1c2ccc(F)cc2c2cc(F)ccc21)Cn1c2ccc(F)cc2c2cc(F)ccc21 (stereo not shown)",
    "unitString": "h",
    "half-life": 8.8
  },
  {
    "compound": "OC[C@H]1CN(CC(O)COC(Cn2c3ccccc3c3cc(F)ccc32)Cn2c3ccc(F)cc3c3cc(F)ccc32)CCN1 (stereo partly shown)",
    "unitString": "h",
    "half-life": 3.9
  },
  {
    "compound": "OC(CNCCc1c[nH]c2ccccc12)COC(Cn1c2ccccc2c2ccccc21)Cn1c2ccccc2c2ccccc21 (stereo not shown) [DC_517, reference compound]",
    "unitString": "h",
    "half-life": 6.7
  }
]

* * *

Entries and their melting point

[
  {
    "compound": "CC(CO)NCC(O)Cn1c2ccc(F)cc2c2cc(F)ccc21 (stereo not drawn)",
    "melting point": "136 to 138 °C"
  },
  {
    "compound": "CCCCOCCCNCC(O)Cn1c2ccccc2c2cc(F)ccc21 (stereo not drawn)",
    "melting point": "71 to 73 °C"
  },
  {
    "compound": "OC(CNCCc1c[nH]c2ccccc12)Cn1c2ccc(F)cc2c2cc(F)ccc21 (stereo not drawn)",
    "melting point": "130 to 132 °C"
  },
  {
    "compound": "OC(CNCCc1c[nH]c2ccccc12)Cn1c2ccccc2c2ccncc21 (stereo not drawn)",
    "melting point": "85 to 87 °C"
  },
  {
    "compound": "CC(O)CNCC(O)Cn1c2ccc(F)cc2c2cc(F)ccc21 (stereo not drawn)",
    "melting point": "130 to 132 °C"
  },
  {
    "compound": "OC(CNC1CC1)COC(Cn1c2ccccc2c2cc(F)ccc21)Cn1c2ccccc2c2cc(F)ccc21 (stereo not drawn)",
    "melting point": "57 to 59 °C"
  },
  {
    "compound": "OC(CNCCc1c[nH]c2ccccc12)COC(Cn1c2ccccc2c2cc(F)ccc21)Cn1c2ccc(F)cc2c2cc(F)ccc21 (stereo not drawn)",
    "melting point": "113 to 115 °C"
  },
  {
    "compound": "Oc1ccc(CCNCC(O)Cn2c3ccccc3c3cc(F)ccc32)cc1 (stereo not drawn)",
    "melting point": "140 to 142 °C"
  },
  {
    "compound": "COc1ccccc1OCCNCC(O)Cn1c2ccc(F)cc2c2cc(F)ccc21 (stereo not drawn)",
    "melting point": "93 to 95 °C"
  }
]

* * *

Entries annotated with measured melting point

[
  {
    "molecule": "CC(C)(C)OC(=O)N1CCN(CC(O)COC(Cn2c3ccccc3c3cc(F)ccc32)Cn2c3ccc(F)cc3c3cc(F)ccc32)C[C@@H]1CO (stereo partly shown)",
    "melting point": "74 to 76 °C"
  },
  {
    "molecule": "CC(C)(C)NCC(O)COC(Cn1c2ccccc2c2cc(F)ccc21)Cn1c2ccccc2c2cc(F)ccc21 (stereo not shown)",
    "melting point": "183 to 185 °C"
  },
  {
    "molecule": "COc1ccccc1OCCNCC(O)Cn1c2ccccc2c2cc(F)ccc21 (stereo not shown)",
    "melting point": "55 to 57 °C"
  },
  {
    "molecule": "Oc1ccc(CCNCC(O)Cn2c3ccc(F)cc3c3cc(F)ccc32)cc1 (stereo not shown)",
    "melting point": "143 to 145 °C"
  },
  {
    "molecule": "CCCCOCCCNCC(O)COC(Cn1c2ccccc2c2cc(F)ccc21)Cn1c2ccc(F)cc2c2cc(F)ccc21 (stereo not shown)",
    "melting point": "151 to 153 °C"
  },
  {
    "molecule": "OC(CNCCc1ccc(F)cc1)Cn1c2ccc(F)cc2c2cc(F)ccc21 (stereo not shown)",
    "melting point": "114 to 116 °C"
  },
  {
    "molecule": "C[C@@H](CNCC(O)Cn1c2ccccc2c2cc(F)ccc21)c1ccccc1 (stereo partly shown)",
    "melting point": "100 to 102 °C"
  },
  {
    "molecule": "OC[C@@H]1CN(CC(O)Cn2c3ccccc3c3cc(F)ccc32)CCN1 (stereo partly shown)",
    "melting point": "35 to 37 °C"
  },
  {
    "molecule": "CC(O)CNCC(O)Cn1c2ccccc2c2cc(F)ccc21 (stereo not shown)",
    "melting point": "118 to 120 °C"
  },
  {
    "molecule": "CCCCOCCCNCC(O)Cn1c2ccc(F)cc2c2cc(F)ccc21 (stereo not shown)",
    "melting point": "94 to 96 °C"
  },
  {
    "molecule": "OC[C@H]1CN(CC(O)COC(Cn2c3ccccc3c3cc(F)ccc32)Cn2c3ccc(F)cc3c3cc(F)ccc32)CCN1 (stereo partly shown)",
    "melting point": "150 to 152 °C"
  },
  {
    "molecule": "OC(CNCCc1ccc(F)cc1)Cn1c2ccccc2c2cc(F)ccc21 (stereo not shown)",
    "melting point": "109 to 111 °C"
  },
  {
    "molecule": "CC(C)(C)OC(=O)N1CCN(CC(O)Cn2c3ccccc3c3cc(F)ccc32)C[C@H]1CO (stereo partly shown)",
    "melting point": "71 to 73 °C"
  },
  {
    "molecule": "OC(CNCCc1c[nH]c2ccccc12)Cn1c2ccccc2c2cc(F)ccc21 (stereo not shown)",
    "melting point": "137 to 139 °C"
  },
  {
    "molecule": "OC(CNCCc1c[nH]c2ccccc12)Cn1c2ccccc2c2cccnc21 (stereo not shown)",
    "melting point": "107 to 109 °C"
  },
  {
    "molecule": "CC(C)NCC(O)COC(Cn1c2ccc(F)cc2c2cc(F)ccc21)Cn1c2ccc(F)cc2c2cc(F)ccc21 (stereo not shown)",
    "melting point": "89 to 91 °C"
  },
  {
    "molecule": "OC(CNCCc1ccccc1)Cn1c2ccc(F)cc2c2cc(F)ccc21 (stereo not shown)",
    "melting point": "91 to 93 °C"
  },
  {
    "molecule": "OC(CNCc1ccc(F)cc1)Cn1c2ccccc2c2cc(F)ccc21 (stereo not shown)",
    "melting point": "130 to 132 °C"
  },
  {
    "molecule": "CC(CO)NCC(O)Cn1c2ccccc2c2cc(F)ccc21 (stereo not shown)",
    "melting point": "119 to 121 °C"
  }
]

* * *

System: HCT116 (human colon cancer cells)
Assay: MTT assay, HCT116
Type: cell-based
Details: HCT-116, 72 h, read-out: Inh % at 50 μM, HCT116, 72 h
Each record here notes measured inhibition at 50 µM.
readoutType: inhibition at 50 µM

[
  {
    "compound": "OC(CNCCc1c[nH]c2ccccc12)Cn1c2ccccc2c2cc(F)ccc21 (stereo not drawn) [WK-1]",
    "recordedValue": "94.9%"
  },
  {
    "compound": "CC(C)NCC(O)COC(Cn1c2ccccc2c2cc(F)ccc21)Cn1c2ccccc2c2cc(F)ccc21 (stereo not drawn) [WK-23]",
    "recordedValue": "97.5%"
  },
  {
    "compound": "CC(CO)NCC(O)Cn1c2ccc(F)cc2c2cc(F)ccc21 (stereo not drawn) [WK-19]",
    "recordedValue": "88.3%"
  },
  {
    "compound": "Oc1ccc(CCNCC(O)Cn2c3ccc(F)cc3c3cc(F)ccc32)cc1 (stereo not drawn) [WK-13]",
    "recordedValue": "93.2%"
  },
  {
    "compound": "CC(C)NCC(O)COC(Cn1c2ccc(F)cc2c2cc(F)ccc21)Cn1c2ccc(F)cc2c2cc(F)ccc21 (stereo not drawn) [WK-22]",
    "recordedValue": "97.4%"
  },
  {
    "compound": "OC(CNCCc1c[nH]c2ccccc12)Cn1c2ccc(F)cc2c2cc(F)ccc21 (stereo not drawn) [WK-12]",
    "recordedValue": "96.7%"
  }
]
